Biological target: T1, recombinant BACE1 (BACE1 extracellular domain, R&D Systems Cat#931-AS) (UniProt P56817 22-457)
T1 construct: extracellular domain; also called BACE1 extracellular domain protein
T1 sequence (P56817 22-457): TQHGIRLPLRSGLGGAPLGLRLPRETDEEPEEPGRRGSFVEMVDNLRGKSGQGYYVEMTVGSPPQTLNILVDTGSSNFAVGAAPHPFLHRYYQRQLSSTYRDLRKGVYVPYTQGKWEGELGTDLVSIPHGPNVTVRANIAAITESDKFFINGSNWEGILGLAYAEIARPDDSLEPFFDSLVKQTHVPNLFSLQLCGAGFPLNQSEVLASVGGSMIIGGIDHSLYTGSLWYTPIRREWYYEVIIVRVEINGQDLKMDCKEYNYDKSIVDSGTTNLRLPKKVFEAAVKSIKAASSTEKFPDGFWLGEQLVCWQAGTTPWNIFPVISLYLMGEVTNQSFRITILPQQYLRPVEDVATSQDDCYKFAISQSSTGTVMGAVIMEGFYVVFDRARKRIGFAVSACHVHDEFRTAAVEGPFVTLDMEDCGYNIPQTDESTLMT
Experiment: SPR Biacore
readout-name: koff (s⁻¹)

[[record]]
binder = "2H8.08 (antibody, human IgG1, V domains shown, human IgG1/kappa; also called 2H8_HCvar2 + 2H8_LCvar2) VH: EVQLQQPGTELVRPGTSVKLSCKASGYTFTNYWMHWIKQRPGQGLEWIGMIDPSDTYTKFNQNFKGKATLTVDTSSSTAYMQLNSLTSEDSAVYYCARSGVAFPYWGQGTTVTVSS VL: DIVMTQSQKFMSTSVGDRVSVTCKASQNVGTNVAWYQQKPGQSPKALIYSASHRYSGVPDRFTGSGSGTDFTLTISNVQSEDLAEYFCQQYNSYMYTFGGGTKLEIK"
units_label = "s⁻¹"
endpoint_result = 0.000299

[[record]]
binder = "2H8.19 (antibody, human IgG1, V domains shown, human IgG1/kappa; also called 2H8_HC + 2H8_LCvar4) VH: EVQLQQSGPELVKPGASVKLSCKASGYTFTNFWIHWLKQRPGQGLEWIGMIDPSDSYTKYNQKFKAKATLTVDTSSSTTYMHLSSLTSEDSAVYYCARSGVAFPYWGQRTLVTVSA VL: DIVMTQSQKFMSTSVGDRVSITCKASQNVGTNVAWYQQKPGQSPKALIYSASYRYSGVPDRFTGSGSGTDFTLTISNVQSEDLAEYFCQQYNSYPYTFGGGTKLEIK"
units_label = "s⁻¹"
endpoint_result = 0.000674

[[record]]
binder = "2H8.11 (antibody, human IgG1, V domains shown, human IgG1/kappa; also called 2H8_HCvar5 + 2H8_LCvar2) VH: EVQLQQPGAEVVRPGTSVKLSCKASGYTFTNYWMHWVKQRPGQGLEWIGMIDPSDNYTKYNQKLKGKATLTVDTSSSTANMHVNSLTSEDSAVYFCARSGVAFPYWGQGTLVTVSA VL: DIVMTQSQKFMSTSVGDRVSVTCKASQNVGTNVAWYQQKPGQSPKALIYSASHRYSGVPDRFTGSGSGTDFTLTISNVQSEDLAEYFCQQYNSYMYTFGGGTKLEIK"
units_label = "s⁻¹"
endpoint_result = 0.000235

[[record]]
binder = "2H8.10 (antibody, human IgG1, V domains shown, human IgG1/kappa; also called 2H8_HCvar4 + 2H8_LCvar2) VH: EIQLQQSGTELVRPGTSVKLSCKASGYTFTNYWMHWVKQRPGQGLEWIGMIDPSAAYTNYNQNFKGKATLTVDTSSGTAYMQLSSLTSEDSAVYYCARSGVAFPYWGQGTTVTVSS VL: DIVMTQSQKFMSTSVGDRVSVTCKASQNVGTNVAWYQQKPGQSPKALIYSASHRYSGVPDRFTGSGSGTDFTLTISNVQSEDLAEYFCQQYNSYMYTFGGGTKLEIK"
units_label = "s⁻¹"
endpoint_result = 0.000878

[[record]]
binder = "2H8.14 (antibody, human IgG1, V domains shown, human IgG1/kappa; also called 2H8_HCvar2 + 2H8_LCvar3) VH: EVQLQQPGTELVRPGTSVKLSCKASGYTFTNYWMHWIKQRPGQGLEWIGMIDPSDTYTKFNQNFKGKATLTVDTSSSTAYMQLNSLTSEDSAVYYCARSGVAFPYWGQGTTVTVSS VL: DIQMTQSQKFMSTSIGDRVSVTCKASQNVGTNVAWYQQKPGQSPKSLIYSASHWYSGVPDRFTGSGSGTDFTLTISNVQSEDLAEYFCQQYNSYPYTFGGGTKLEIK"
units_label = "s⁻¹"
endpoint_result = 0.000291


The measured values listed here are drawn from patent US20210070881A1.
